study.system: pERK1/2 (Thr202/Tyr204), NCI-1H441 (KRAS G12V) (Homo sapiens, UniProt P01116, G12V)
Construct: pERK1/2 HTRF read-out
Sequence (P01116 1-188 isoform P01116-2 G12V): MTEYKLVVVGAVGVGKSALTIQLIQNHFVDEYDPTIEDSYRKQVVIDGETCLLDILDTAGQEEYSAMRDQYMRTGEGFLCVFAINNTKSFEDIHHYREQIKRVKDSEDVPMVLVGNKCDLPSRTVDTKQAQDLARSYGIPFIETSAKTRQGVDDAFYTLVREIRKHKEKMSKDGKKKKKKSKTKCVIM
test.summary: Assay of intracellular pERK1/2 (Thr202/Tyr204) phosphorylation in NCI-H441 cells (KRAS G12V)
Assay type: cell-based
condition.info: read-out: NCI-H441 (KRAS G12V) IC50, pERK1/2, 2 days
quantity.kind: IC50

Illustrative cases are given below, each with its answer.
• CCc1c(F)ccc2cc(OC(=O)NC)cc(-c3nc4c5c(nc(OC[C@@]67CCCN6C[C@H](F)C7)nc5c3F)N(C(C)c3cccnc3N)[C@@H](C)CO4)c12 (stereo partly drawn) = 2 nM
• CNC(=O)Oc1cc(Cl)c(C2CC2)c(-c2nc3c4c(nc(OC[C@@]56CCCN5C[C@H](F)C6)nc4c2F)N(C(C)c2cccnc2N)[C@@H](C)CO3)c1 (stereo partly drawn) = 1 nM
• CC(c1cccnc1N)N1CCOc2nc(-c3cc(O)cc4ccc(F)c(F)c34)c(F)c3nc(OC[C@@]45CCCN4C[C@H](F)C5)nc1c23 (stereo partly drawn) = 3 nM
• CCNC(=O)Oc1cc(Cl)c(C2CC2)c(-c2nc3c4c(nc(OC[C@@]56CCCN5C[C@H](F)C6)nc4c2F)N(C(C)c2cccnc2N)[C@@H](C)CO3)c1 (stereo partly drawn) = 1 nM
• CC(c1cccn2ccnc12)N1c2nc(OC[C@@]34CCCN3C[C@H](F)C4)nc3c(F)c(-c4cc(O)cc5ccc(F)c(F)c45)nc(c23)OC[C@@H]1C (stereo partly drawn) = > 100 nM
• CCc1c(F)ccc2cc(OC(=O)N3CCC3)cc(-c3nc4c5c(nc(OC[C@@]67CCCN6C[C@H](F)C7)nc5c3F)N(C(C)c3cccnc3N)[C@@H](C)CO4)c12 (stereo partly drawn) = 46 nM

Task item: Query: IC50; subject: CCc1c(F)ccc2cc(OC(=O)N(C)C)cc(-c3nc4c5c(nc(OC[C@@]67CCCN6C[C@H](F)C7)nc5c3F)N(C(C)c3cccnc3N)[C@@H](C)CO4)c12 (stereo partly drawn)
Reply: 72 nM

Task item: Request: CCNC(=O)Oc1cc(-c2nc3c4c(nc(OC[C@@]56CCCN5C[C@H](F)C6)nc4c2F)N(C(C)c2cccnc2N)[C@@H](C)CO3)c2c(CC)c(F)ccc2c1 (stereo partly drawn)
Reply: 2 nM

Task item: Same read-out for CCc1c(F)ccc2cc(OC(=O)N3CCOCC3)cc(-c3nc4c5c(nc(OC[C@@]67CCCN6C[C@H](F)C7)nc5c3F)N(C(C)c3cccnc3N)[C@@H](C)CO4)c12 (stereo partly drawn) ?
Reply: 23 nM

----------
Entries and their IC50 values follow.
study.system: pERK1/2 (Thr202/Tyr204), NCI-1H358 (KRAS G12C) (Homo sapiens, UniProt P01116, G12C)
Construct: pERK1/2 HTRF read-out
Sequence (P01116 1-188 isoform P01116-2 G12C): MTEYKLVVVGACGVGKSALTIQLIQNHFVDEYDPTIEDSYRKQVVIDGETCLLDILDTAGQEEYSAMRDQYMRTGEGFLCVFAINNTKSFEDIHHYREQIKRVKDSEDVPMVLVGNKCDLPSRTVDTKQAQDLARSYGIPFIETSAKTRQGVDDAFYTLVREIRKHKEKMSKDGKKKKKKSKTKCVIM
test.summary: Assay of intracellular pERK1/2 (Thr202/Tyr204) phosphorylation in NCI-H358 cells (KRAS G12C)
Type: cell-based
condition.info: pERK1/2, 2 days, read-out: NCI-H358 (KRAS G12C) IC50
From the text: Example 2: Assay of intracellular pERK1/2 (Thr202/Tyr204)phosphorylation 1. […] Fluorescence ratio=fluorescence value665 nm/fluorescence value615 nm Inhibition rate (%)=100−((fluorescence ratio of compound well−fluorescence ratio of negative control well)/(fluorescence ratio of positive control well−fluorescence ratio of negative control well))×100 […]
I only need the number, in nM, no unit after it.

Examples from the recorded data:
• CC(c1cccnc1N)N1CCOc2nc(-c3cc(N)ccc3C(F)(F)F)c(F)c3nc(OC[C@@]45CCCN4C[C@H](F)C5)nc1c23 (some centres unmarked) [Compound 18] = 1
• CC(c1cccnc1N)N1c2nc(OC[C@@]34CCCN3C[C@H](F)C4)nc3c(F)c(N4CC(O)Cc5ccccc54)nc(c23)OC[C@@H]1C (some centres unmarked) = 38
• [2H]C1([2H])CC[C@@]2(COc3nc4c5c(nc(-c6cc(N)c(F)c(Cl)c6C(F)(F)F)c(F)c5n3)OC([2H])([2H])C([2H])([2H])N4C(C)c3cccnc3N)C[C@@H](F)CN12 (single isomer, unassigned) = 2

Task item: Quick one: IC50 for Cc1nc(N)cc(-c2nc3c4c(nc(OC[C@@]56CCCN5C[C@H](F)C6)nc4c2F)N(C(C)c2cccnc2N)[C@@H](C)CO3)c1C(F)(F)F (some centres unmarked) ?
Reply: 0.5

Task item: CC(c1cccnc1N)N1CCOc2nc(-c3cc(O)cc4ccc(F)c(F)c34)c(F)c3nc(OC[C@@H]4CCN4CC(F)F)nc1c23 (some centres unmarked) ?
Reply: 1

----------
Recorded measurements of pIC50, one per entry
study.system: pERK1/2 (Thr202/Tyr204), PANC-1 (KRAS G121D) (Homo sapiens, UniProt P01116, G12D)
Construct: pERK1/2 HTRF read-out
Sequence (P01116 1-188 isoform P01116-2 G12D): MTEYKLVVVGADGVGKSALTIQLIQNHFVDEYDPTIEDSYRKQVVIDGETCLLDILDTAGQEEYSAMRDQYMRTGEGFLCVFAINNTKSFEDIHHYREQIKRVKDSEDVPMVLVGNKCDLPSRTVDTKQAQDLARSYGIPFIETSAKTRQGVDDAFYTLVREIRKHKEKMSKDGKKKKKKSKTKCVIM
test.summary: Assay of intracellular pERK1/2 (Thr202/Tyr204) phosphorylation in PANC-1 cells (KRAS G12D)
Assay type: cell-based
condition.info: pERK1/2, 2 days, read-out: PANC-1 (KRAS G12D) IC50
Friendly reminder that pIC50 comes from taking -log10 of the concentration in mol/L.

Answered examples (5):
• Cc1cc(N)cc(-c2nc3c4c(nc(OC[C@@]56CCCN5C[C@H](F)C6)nc4c2F)N(C(C)c2cccnc2N)[C@@H](C)CO3)c1C(F)(F)F (single isomer, unassigned) [Compound 267] = 9.70
• Cc1cc(N)cc(-c2nc3c4c(nc(OC[C@@H]5CCCN5C)nc4c2F)N(C(C)c2cccnc2N)CCO3)c1C(F)(F)F (stereo partly drawn) [Compound 65] = 7.59
• Cc1cc(N)cc(-c2nc3c4c(nc(OC[C@@H]5CCCN5C)nc4c2F)N(C(C)c2cccnc2N)CCO3)c1C(F)(F)F (single isomer, unassigned) [Compound 76] = 7.74
• Cc1c(C(F)(F)F)c(-c2nc3c4c(nc(OC[C@@]56CCCN5C[C@H](F)C6)nc4c2F)N(C(C)c2cccnc2N)[C@@H](C)CO3)c2c(C)n[nH]c2c1F (stereo partly drawn) [Compound 379] = 10.00
• CC(c1cccnc1N)N1c2nc(OC[C@@]34CCCN3C[C@H](F)C4)nc3cc(-c4c5ccccc5cc5[nH]nc(C6CC6)c45)nc(c23)OC[C@@H]1C (stereo partly drawn) [Compound 403] = 6.00

Read the next record carefully.
Task item: Record lookup: for pERK1/2 (Thr202/Tyr204), PANC-1 (KRAS G121D) (Homo sapiens, UniProt P01116, G12D), what pIC50 belongs to Cc1ccc2[nH]ncc2c1-c1nc2c3c(nc(OC[C@@]45CCCN4C[C@H](F)C5)nc3c1F)N(C(C)c1cccnc1N)[C@@H](C)CO2 (stereo partly drawn) [Compound 318] ?
Reply: 7.43

----------
study.system: pERK1/2 (Thr202/Tyr204), NCI-1H441 (KRAS G12V) (Homo sapiens, UniProt P01116, G12V)
Construct: pERK1/2 HTRF read-out
test.summary: Assay of intracellular pERK1/2 (Thr202/Tyr204) phosphorylation in NCI-H441 cells (KRAS G12V)
Format: cell-based
condition.info: pERK1/2, 2 days, read-out: NCI-H441 (KRAS G12V) IC50
Labelling: IC50 reported below 10 nM becomes True; at or above becomes False.

Sample answers from the record:
• CC(c1cccnc1N)N1CCOc2nc(-c3cc(O)cc4ccc(F)c(F)c34)c(F)c3nc(OC[C@H]4COCCN4)nc1c23 (stereo partly shown) [Compound 12] = False
• CC(c1cccnc1N)N1CCOc2nc(-c3cc(N)cc(Cl)c3C(F)(F)F)c(F)c3nc(OC[C@@]45CCCN4C[C@H](F)C5)nc1c23 (single isomer, unassigned) [Compound 72] = False
• CC(c1cccnc1N)N1CCOc2nc(-c3cc(O)cc4ccc(F)c(F)c34)c(F)c3ncnc1c23 (stereo not shown) [Compound 22] = False
• [2H]C1([2H])CN(C(C)c2cccnc2N)c2nc(OC[C@@]34CCCN3C[C@H](F)C4)nc3c(F)c(-c4cc(N)cc(C)c4C(F)(F)F)nc(c23)O1 (single isomer, unassigned) [Compound 153] = True

Task item: is_below(IC50, 10 nM) for Cc1ccnc(N)c1C(C)N1CCOc2nc(-c3cc(N)c(F)c(C)c3C(F)(F)F)c(F)c3nc(OC[C@@]45CCCN4C[C@H](F)C5)nc1c23 (single isomer, unassigned) [Compound 257] ?
Reply: True

Task item: Please do the same for [2H]C1([2H])Oc2nc(-c3cc(N)c(F)c(Cl)c3C(F)(F)F)c(F)c3nc(OC[C@@H]4C[C@@H](F)CN4C)nc(c23)N(C(C)c2cccnc2N)C1([2H])[2H] (single isomer, unassigned) [Compound 209] as well.
Reply: False

Task item: Next entry: CSc1nc2c3c(nc(-c4cc(O)cc5ccc(F)c(F)c45)c(F)c3n1)OCCN2C(C)c1cccnc1N (stereo not shown) [Compound 33]
Reply: False

Task item: Try the molecule CC(c1cccnc1N)N1c2nc(OC[C@@]34CCCN3C[C@H](F)C4)nc3c(F)c(-c4c(Cl)c(C(F)(F)F)cc5[nH]ncc45)nc(c23)OC[C@@H]1C (single isomer, unassigned) [Compound 361]
Reply: True

Task item: Please give the result for [2H]C([2H])(Oc1nc2c3c(nc(-c4cc(N)cc(C)c4C(F)(F)F)c(F)c3n1)OCCN2C(C)c1cccnc1N)[C@@H]1CCC([2H])([2H])N1C([2H])([2H])[2H] (single isomer, unassigned) [Compound 102] too.
Reply: True
